# assay-target: S#027: VH-L1-VL CAR-T
# measurement-protocol: flow cytometry on CAR-T cells; PE-labeled secondary antibody; PE-positive cells / total cells
measured-property: Reactivity (%)

>>> recorded_value("4B9-B11 (antibody, V domains shown) VH: QMQLKESGPGLVQPSETLSLTCTVSGFSLTSYSVSWVRQPSGKGPEWMGRMYYDGDTAYNSALKSRLSISRDTSKNQVFLKMNSLQTDDTGTYYCTRSIGAEDYWGQGVMVTVSS VL: TSYELIQPPSASVTLGNTVSLTCVGDELPKRYAYWYQQKPDQSIVRVIYEDSKRPSGISDRFSGSSSGTTATLTIRDAQNEDEADYYCHSTYSDDKLRIFGGGTKLTVLG")
1
>>> recorded_value("3A4-A10-7 (antibody, V domains shown) VH: QVQLQQSGAALVKPGASVKMSCKASGYTFTDCWVSWVKQSHGKSLEWIGEIHPNSGTTNFNEKFKGKATLTVDKSTSTAYMELSRLTSEDSAIYYCTRAYGGYPFDYWGQGVMVTVSS VL: ADLVLTQPKSVSTSLESTVKLSCKLNSGNIGRYYMHWYQQHEGRSPTNMIYRDDKRPDGVPDRFSGSIDSSSNSAFLTINNVQTEDEAIYFCHSYDSSINIFGGGTKLTVLG")
45.7
>>> recorded_value("3E7-C1 (antibody, V domains shown) VH: QVQMKESGPGLVQPSETLSLTCTVSGFSLTSYGVSWVRQPSGKGPEWMGRLWNDGDTAYNSALKSRLSISRDTSKNQVFLKMNSLQTDDTGTYYCTTMNGYKDYWGQGVMVTVSS VL: TSYELIQPPSASVTLGNTVSLTCVGDELPKRYAYWYQQKPDQSIVRVIYEDSKRPSGISDRFSGSSSGTTATLTIRDAQAEDEADYYCHSTYSDDKLRIFGGGTKLTVLG")
0
